Data provenance: ChEMBL document CHEMBL1122283

# Tested on: Rattus norvegicus
# PROTOCOL DESCRIPTION: Maximal change in blood pressure recorded during the 4-day test period in spontaneously hypertensive rat (SHR)at 50 mg/kg, p.o. dose
# Format: functional
# EXPERIMENTAL CONTEXT: route oral
Lab note - cut at -60 mmHg for Max delta BP: true (1) if strictly below, false (0) if not.

Answered examples (4):
1) O=C(O)C(CCC(=O)N1c2ccccc2CC1C(=O)O)CCc1ccccc1 (configuration not stated): false (0)
2) C[C@H](C[C@@H](C)C(=O)N1c2ccccc2CC1C(=O)O)C(=O)O (some centres not stated): false (0)
3) CCOC(=O)[C@H](C)C[C@@H](C)C(=O)N1c2ccccc2CC1C(=O)O (some centres not stated): true (1)
4) CCOC(=O)C1Cc2ccccc2N1C(=O)C(C)CC(C)C(=O)O (configuration not stated): false (0)

--- query ---
IN: Is Max delta BP of CCOC(=O)CC[C@@H](C)C(=O)N1c2ccccc2CC1C(=O)O (some centres not stated) strictly below -60 mmHg?
OUT: true (1)

====

# Tested on: Rattus norvegicus
# PROTOCOL DESCRIPTION: In vivo percent inhibition of angiotensin I pressor response 15 min after 0.10 mg/kg, iv administration in spontaneously hypertensive rat (SHR)
# Type: functional
# EXPERIMENTAL CONTEXT: 0.25 h
QUANTITY MEASURED: inhibition in vivo at 0.1 mg/kg (%)
Answer in %, number only, no unit symbol.

The following molecules have reported results that may help.
1. C[C@H](C[C@@H](C)C(=O)N1c2ccccc2CC1C(=O)O)C(=O)O (stereo not given in full): 45
2. C[C@H](C[C@@H](CCc1ccccc1)C(=O)O)C(=O)N1c2ccccc2CC1C(=O)O (stereo not given in full): 60
3. CCOC(=O)[C@H](C)C[C@@H](C)C(=O)N1c2ccccc2CC1C(=O)O (stereo not given in full): 52

IN: Entry CCOC(=O)CC[C@@H](C)C(=O)N1c2ccccc2CC1C(=O)O (stereo not given in full) , system Rattus norvegicus: what inhibition in vivo at 0.1 mg/kg was measured?
OUT: 27

IN: Entry COC(=O)CCC(C)C(=O)N1c2ccccc2CC1C(=O)O (stereo not given) , system Rattus norvegicus: what inhibition in vivo at 0.1 mg/kg was measured?
OUT: 45

====

Quick reference for pIC50 among some compounds
# EXPERIMENTAL TARGET: Angiotensin-converting enzyme (Oryctolagus cuniculus, UniProt P12822)
# Sequence (P12822 whole entry): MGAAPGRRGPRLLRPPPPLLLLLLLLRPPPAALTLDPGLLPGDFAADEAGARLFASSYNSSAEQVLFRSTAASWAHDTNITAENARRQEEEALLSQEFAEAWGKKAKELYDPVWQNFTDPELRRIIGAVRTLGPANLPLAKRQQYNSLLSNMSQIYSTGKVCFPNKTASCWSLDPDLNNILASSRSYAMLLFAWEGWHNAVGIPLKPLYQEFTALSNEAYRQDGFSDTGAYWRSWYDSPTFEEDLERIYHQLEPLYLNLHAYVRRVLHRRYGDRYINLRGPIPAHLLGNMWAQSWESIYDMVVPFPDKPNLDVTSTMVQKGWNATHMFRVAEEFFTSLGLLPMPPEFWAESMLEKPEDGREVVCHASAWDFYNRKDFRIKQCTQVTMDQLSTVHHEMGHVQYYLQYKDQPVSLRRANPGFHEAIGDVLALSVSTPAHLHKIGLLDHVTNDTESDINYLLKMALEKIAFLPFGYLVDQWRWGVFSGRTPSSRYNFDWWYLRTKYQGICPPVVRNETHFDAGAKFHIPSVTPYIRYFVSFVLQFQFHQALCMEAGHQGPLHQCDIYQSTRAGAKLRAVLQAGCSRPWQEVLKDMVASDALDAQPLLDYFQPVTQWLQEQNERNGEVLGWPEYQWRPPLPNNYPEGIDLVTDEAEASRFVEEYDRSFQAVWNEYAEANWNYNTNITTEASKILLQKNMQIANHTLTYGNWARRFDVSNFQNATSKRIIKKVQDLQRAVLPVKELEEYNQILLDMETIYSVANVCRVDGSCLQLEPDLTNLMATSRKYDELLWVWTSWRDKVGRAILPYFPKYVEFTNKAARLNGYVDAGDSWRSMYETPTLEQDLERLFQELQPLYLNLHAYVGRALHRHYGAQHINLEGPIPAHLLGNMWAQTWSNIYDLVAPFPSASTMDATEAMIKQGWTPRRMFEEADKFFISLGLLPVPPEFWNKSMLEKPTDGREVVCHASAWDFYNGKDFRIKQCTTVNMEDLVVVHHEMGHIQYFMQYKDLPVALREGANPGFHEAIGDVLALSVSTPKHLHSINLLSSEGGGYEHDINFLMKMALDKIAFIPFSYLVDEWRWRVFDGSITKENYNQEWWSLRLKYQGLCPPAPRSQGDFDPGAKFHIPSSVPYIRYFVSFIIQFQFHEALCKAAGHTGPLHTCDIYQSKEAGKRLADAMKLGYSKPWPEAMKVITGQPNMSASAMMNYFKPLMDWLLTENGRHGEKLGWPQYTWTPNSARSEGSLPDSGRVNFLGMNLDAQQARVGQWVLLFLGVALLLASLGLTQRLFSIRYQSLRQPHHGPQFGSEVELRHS
# PROTOCOL DESCRIPTION: In vitro inhibition of angiotensin I converting enzyme (ACE)
Would you please state pIC50, meaning minus log10 of the concentration in mol/L, as a bare number?

The following compounds have reported results that may help.
1. C[C@H](C[C@@H](C)C(=O)N1CCC[C@H]1C(=O)O)C(=O)O: 5.32
2. CCOC(=O)CC[C@@H](C)C(=O)N1c2ccccc2CC1C(=O)O (some centres not stated): 4.96
3. COc1ccc2c(c1)CC(C(=O)O)N2C(=O)[C@H](C)C[C@@H](C)C(=O)O (some centres not stated): 6.96
4. O=C(O)C(CCC(=O)N1c2ccccc2CC1C(=O)O)CCc1ccccc1 (configuration not stated): 7.41
5. CC(CC(=O)O)CC(=O)N1c2ccccc2CC1C(=O)O (configuration not stated): 4.43

Now look at this entry.
IN: What value of pIC50 has been recorded for this entry: CC(CCC(=O)N1c2ccccc2CC1C(=O)O)C(=O)O (configuration not stated)
OUT: 6.04
